Catalogue of total protein half-life in vivo values
Experiment: total protein half-life in vivo (active degradation + dilution); higher = more stable protein
Conditions: wild type E. coli NCM3722; growth: C-lim chemostat; doubling time 3 h
reportedProperty: total protein half-life in vivo (h)

[[record]]
chain = "MQLNKVLKGLMIALPVMAIAACSSNKNASNDGSEGMLGAGTGMDANGGNGNMSSEEQARLQMQQLQQNNIVYFDLDKYDIRSDFAQMLDAHANFLRSNPSYKVTVEGHADERGTPEYNISLGERRANAVKMYLQGKGVSADQISIVSYGKEKPAVLGHDEAAYSKNRRAVLVY [P0A912]"
reportedproperty = "total protein half-life in vivo"
datavalue = 3.09

[[record]]
chain = "MNTLLLLAALSSQITFNTTQQGDVYTIIPEVTLTQSCLCRVQILSLREGSSGQSQTKQEKTLSLPANQPIALTKLSLNISPDDRVKIVVTVSDGQSLHLSQQWPPSSEKS"
reportedproperty = "total protein half-life in vivo"
datavalue = 2.3

[[record]]
chain = "MNAYELQALRHIFAMTIDECATWIAQTGDSESWRQWENGKCAIPDRVVEQLLAMRQQRKKHLHAIIEKINNRIGNNTMRFFPDLTAFQRVYPDGNFIDWKIYQSVAAELYAHDLERLC"
reportedproperty = "total protein half-life in vivo"
datavalue = 2.05

